Data provenance is patent US20260151494A1.

- SYSTEM_TESTED: T1, human CD71 extracellular domain (human, UniProt P02786 89-760, biotinylated)
- T1 construct: also called hCD71; CD71-ECD
- PROCEDURE_TEXT: primary ELISA, RLU over HSA
Listed below: hCD71:HSA values for each entry.
A bare number is all that is needed in reply.

BINDER	OBS_VALUE
CD71-binding FN3 domain of SEQ ID NO: 517 (designed binder) MLPAPKNLVVSRVTEDSARLSWTAPDAAFDSFFIGYLEPQPPGEAIALVVPGSERSYDLTGLKPGTEYNVTIQGVKGGFPSMPLFAYFTT	142

Note to self: hCD71:HSA recorded for CD71-binding FN3 domain of SEQ ID NO: 465 (designed binder) MLPAPKNLVVSRVTEDSARLSWTAPDAAFDSFFIGYLEPQPPGEAIDLYVPGSERSYDLTGLKPGTEYNVTIQGVKGGFPSEPLWADFTT was 129

Note to self: hCD71:HSA recorded for CD71-binding FN3 domain of SEQ ID NO: 539 (designed binder) MLPAPKNLVVSRVTEDSARLSWTAPDAAFDSFFIGYLEPQPPGEAIHLFVPGSERSYDLTGLKPGTEYNVTIQGVKGGFPSDPLHAAFTT was 167

Note to self: hCD71:HSA recorded for CD71-binding FN3 domain of SEQ ID NO: 518 (designed binder) MLPAPKNLVVSRVTEDSARLSWTAPDAAFDSFFIGYLEPQPPGEAISLWVPGSERSYDLTGLKPGTEYNVTIQGVKGGFPSDPLGAHFTT was 150

Note to self: hCD71:HSA recorded for CD71-binding FN3 domain of SEQ ID NO: 451 (designed binder) MLPAPKNLVVSRVTEDSARLSWTAPDAAFDSFFIGYLEPQPPGEAIGLLVPGSERSYDLTGLKPGTEYNVTIQGVKGGFPSIPLVADFTT was 129

Note to self: hCD71:HSA recorded for CD71-binding FN3 domain of SEQ ID NO: 498 (designed binder) MLPAPKNLVVSRVTEDSARLSWTAPDAAFDSFFIGYLEPQPPGEAIILWVPGSERSYDLTGLKPGTEYNVTIQGVKGGFPSIPLIAVFTT was 113

Note to self: hCD71:HSA recorded for CD71-binding FN3 domain of SEQ ID NO: 494 (designed binder) MLPAPKNLVVSRVTEDSARLSWTTPDAAFDSFFIGYLEPQPPGEAISLYVPGSERSYDLTGLKPGTEYNVTIQGVKGGFPSMPLSAIFTT was 356

Note to self: hCD71:HSA recorded for CD71-binding FN3 domain of SEQ ID NO: 516 (designed binder) MLPAPKNLVVSRVTEDSARLSWTAPDAAFDSFFIGYLEPQPPGEAISLWVPGSERSYDLTGLKPGTEYNVTIQGVKGGFPSSPLVAYFTT was 267

Note to self: hCD71:HSA recorded for CD71-binding FN3 domain of SEQ ID NO: 488 (designed binder) MLPAPKNLVVSRVTEDSARLSWTAPDAAFDSFIIQYGEYLRWGEAIVLTVPGSERSYDLTGLKPGTEYQVEIYGVKGGPLSKPLSAIFTT was 53

Note to self: hCD71:HSA recorded for CD71-binding FN3 domain of SEQ ID NO: 519 (designed binder) MLPAPKNLVVSRVTEDSARLSWTAPDAAFDSFPIAYPEHLPPGEAIVLTVPGSERSYDLTGLKPGTEYPVNIRGVKGGFVSFPLSAIFTT was 156
